Source listed as PubChem BioAssay.

experiment: stimulators of nuclear beta-catenin in C2C12, primary screen, imaging, WNT3A-conditioned medium, mouse C2C12, NPC library (AID 1117326); settings: stimulation, at 2 µM, stronger effect = higher value
Measured attribute: nuclear beta-catenin stimulation (%)
Please state the figure in %; there is no need to write the unit.

- Compound: "NC(=O)Cc1cccc(C(=O)c2ccccc2)c1N"
  nuclear beta-catenin stimulation [%]: 2.6
- Compound: "CN(C(=O)c1c(O)c2ccccc2n(C)c1=O)c1ccccc1"
  nuclear beta-catenin stimulation [%]: 0.9
- Compound: "CCO[C@H](Cc1ccc(OCCc2ccc(OS(C)(=O)=O)cc2)cc1)C(=O)O"
  nuclear beta-catenin stimulation [%]: 7.6
- Compound: "OC(CN1CCC(Cc2ccc(F)cc2)CC1)c1ccc(Cl)cc1 (configuration not stated)"
  nuclear beta-catenin stimulation [%]: 2.8

input: Specify nuclear beta-catenin stimulation for `CCCCCCCCCCCCCCCCNc1ccc(C(=O)O)cc1` and stop.
output: 1.2

input: Specify nuclear beta-catenin stimulation for `CNC(=O)c1ccccc1Sc1ccc2c(/C=C/c3ccccn3)n[nH]c2c1` and stop.
output: 7.2

input: Specify nuclear beta-catenin stimulation for CN=C(NC#N)Nc1ccc(C2=NNC(=O)CC2C)cc1 (configuration not stated) and stop.
output: -0.1

input: Specify nuclear beta-catenin stimulation for Cc1cc(C(C#N)c2ccc(Cl)cc2)c(Cl)cc1NC(=O)c1cc(I)cc(I)c1O (configuration not stated) and stop.
output: 1.5

input: Specify nuclear beta-catenin stimulation for `Cn1ccc2cc3c(cc21)CCN3C(=O)Nc1cccnc1` and stop.
output: -1.3

====

test: LFS_MB_1R medulloblastoma cell growth inhibition, synergistic combos for chromothripsis tumors, cisplatin or BGB combos (AID 1671452); conditions: LFS_MB_1R medulloblastoma cells, at 0.5 µM, stronger effect = higher value;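 further: cells exposed for 96 hours before readout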
Decision: inhibition >= -10% yields condition met, all other cases yield condition not met.

For orientation, consider the following solved cases.
- Compound: "O=C(CCCCCCC(=O)Nc1ccccc1)NO"
  Discrete label: "condition met"
- Compound: "CN1CCN(c2c(F)cc3c(=O)c(C(=O)O)cn4c3c2OCN4C)CC1"
  Discrete label: "condition not met"
- Compound: "CN(N=O)C(=O)NC1C(O)OC(CO)C(O)C1O (centres undefined)"
  Discrete label: "condition not met"
- Compound: "COC1C(OC(N)=O)C(O)C(Oc2ccc3c(O)c(NC(=O)c4ccc(O)c(CC=C(C)C)c4)c(=O)oc3c2C)OC1(C)C (centres undefined)"
  Discrete label: "condition not met"

input: Could you please find out whether `Cc1ccc2nc(N)[nH]c(=O)c2c1Sc1ccncc1` has inhibition that meets -10% or exceeds it?
output: condition met

input: Could you please find out whether `O=c1cc[nH]c(=O)[nH]1` has inhibition that meets -10% or exceeds it?
output: condition not met

input: Could you please find out whether `COc1c2ccoc2cc2oc(=O)ccc12` has inhibition that meets -10% or exceeds it?
output: condition met

input: Could you please find out whether CNC1CCCN(c2c(F)cc3c(=O)c(C(=O)O)cn(C4CC4)c3c2OC)C1 (centres undefined) has inhibition that meets -10% or exceeds it?
output: condition not met

input: Could you please find out whether `CN1CCN(c2c(F)cc3c(=O)c(C(=O)O)cn(CCF)c3c2F)CC1` has inhibition that meets -10% or exceeds it?
output: condition met

====

assay: ovarian cancer cell viability with rucaparib, profiling panel, oncology-focused library, rucaparib conditional (AID 1508598); conditions: patient-derived ovarian cancer cells, CellTiter-Glo viability, 144 h; at 0.000305 µM; OCI-P5x cells; with rucaparib 20 µM; 100% = cells with rucaparib alone
Calls of active or inactive are those of the source.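 How the source made its calls: active means normalized viability below 100% at a tested concentration; inactive means the rest.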
Bench note: report the call from active, inactive

- Compound: "CC(C)C[C@H](NC(=O)[C@H](Cc1ccccc1)NC(=O)c1cnccn1)B(O)O"
  Discrete label: "active"
- Compound: "Nc1ncn([C@H]2C[C@H](O)[C@@H](CO)O2)c(=O)n1"
  Discrete label: "inactive"
- Compound: "COc1cc2ncnc(Nc3ccc(F)c(Cl)c3)c2cc1OCCCN1CCOCC1"
  Discrete label: "inactive"

input: Please let me know the test result on file for `O=C(NOCC1CC1)c1ccc(F)c(F)c1Nc1ccc(I)cc1Cl` .
output: inactive

input: Please let me know the test result on file for `COc1cc(Nc2c(C#N)cnc3cc(OCCCN4CCN(C)CC4)c(OC)cc23)c(Cl)cc1Cl` .
output: active

input: Please let me know the test result on file for `FC(F)c1nc2ccccc2n1-c1nc(N2CCOCC2)nc(N2CCOCC2)n1` .
output: active

input: Please let me know the test result on file for `C#Cc1cccc(Nc2ncnc3cc(OCCOC)c(OCCOC)cc23)c1` .
output: inactive

input: Please let me know the test result on file for `COc1nc(N)nc2c1ncn2[C@@H]1O[C@H](CO)[C@@H](O)[C@@H]1O` .
output: inactive
